Attribute: inhibition
test: growth inhibitors of tim10-1 mutant yeast, primary screen, luminescence, uHTS (AID 463190);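 further: mutant grown at 25 °C; 0% = DMSO wells with yeast and 100% = wells holding no yeast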; details: S. cerevisiae tim10-1 ts strain growth, BacTiter-Glo, 24 h; at 20 µM; active compounds read high
The whole screen tested about 330,000 compounds, of which about 7,300 (2.2%) were called active. The sample as a whole holds a higher share of actives than the screen did.
Just the number please, in %, no unit attached.

Example entries begin here.
| compound | units.of.measure | inhibition |
| --- | --- | --- |
| CCc1ccc(NC(=O)NC(C)c2ccc3c(c2)OCO3)cc1 (configuration not stated) | % | 2.45 |
| O=c1oc(-c2ccccc2NS(=O)(=O)c2ccc(Cl)cc2)nc2ccccc12 | % | 39.6 |
| O=C(NCCCN1CCOCC1)c1ccc(N2CCCC2)c([N+](=O)[O-])c1 | % | -9.34 |
| CCOC(=O)C1CCN(CCC(=O)Nc2cccc(C)c2)CC1 | % | 11.5 |
| COc1ccc(C(=O)N2CC3(C)CC2CC(C)(C)C3)cc1OC (configuration not stated) | % | 19.6 |
| CCOC(=O)Cc1csc(SCc2cc(=O)oc3cc(O)ccc23)n1 | % | 12.7 |
| CCOC(=O)Cc1csc(SCC(=O)NC(C)C23CC4CC(CC(C4)C2)C3)n1 (configuration not stated) | % | 43.5 |
| O=C(COc1ccccc1Cl)N1N=C(c2cccs2)CC1c1ccco1 (configuration not stated) | % | 40.8 |
| Cc1ccc(C2=NN(C(=O)COc3ncnc4ccccc34)C(c3ccco3)C2)cc1 (configuration not stated) | % | -2.47 |
| CCOC(=O)Cc1csc(SCC(=O)Nc2ccc(C)cc2F)n1 | % | 18.9 |

Q. Name the recorded inhibition of the item CCOC(=O)Cc1csc(NC(=O)CSc2ccc(Br)cc2)n1 in your answer.
A. 46.9

Q. Tell us which inhibition value is on record for CC(=NCc1ccc2c(c1)OCO2)C1=C(O)c2ccccc2C1=O
A. 61.2

Q. Give recorded inhibition. CN(C)S(=O)(=O)c1ccc(C(=O)NCC2(N3CCOCC3)CCCCC2)cc1
A. -9.36

Q. Give the value of inhibition reported for the following: CCOc1ccc(NC(=O)CN(C)C(=O)Cn2c(=O)cnc3ccccc32)cc1OCC
A. -8.6

Q. Quickly give me recorded inhibition for Cc1nnnn1/C(=C\c1ccccc1)C(=O)OCC(=O)N1CC2(C)CC1CC(C)(C)C2 (configuration not stated)
A. 56.1

Q. Return value of inhibition for input CCOC(=O)c1c(N)nn(C(=O)c2ccccc2)c1-c1ccccc1 , no commentary.
A. 41.5

Q. Report measured inhibition; entry is Cc1ccc(S(=O)(=O)NCCC(c2ccccc2)c2ccccc2)cc1C(=O)O
A. 25.2
